All figures here come from patent US20250115620A1.

Test system: pLAI reporter virus
PROCEDURE TEXT: microbe, parasite or virus in culture
Type: cell-based, HIV
MEASUREMENT PARAMETERS: Human immunodeficiency virus 1, MT4, 72 h, read-out: RLUC CCM EC50
VALUE KIND: EC50 (nM)
Give bare numbers, in nM.

Asked: EC50 of C[C@H]1CO[C@]2(CC[C@H](C)N3C[C@H]2n2cc(C(=O)NCc4c(F)cc(F)cc4F)c(=O)c(O)c2C3=O)O1 on pLAI reporter virus?
Given back: 0.1

Asked: What do you have for C[C@H]1CC[C@]2(CC(=O)N(Cc3nc4ccccc4n3C)O2)[C@H]2CN1C(=O)c1c(O)c(=O)c(C(=O)NCc3c(F)cc(F)cc3F)cn12 ?
Given back: 0.9

Then there is this compound:
Asked: EC50 of COC1=NS[C@]2(CC[C@H](C)N3C[C@H]2n2cc(C(=O)NCc4ccc(F)cc4F)c(=O)c(O)c2C3=O)C1 on pLAI reporter virus?
Given back: 1.1
